# Substrate: p-NP-C4
# experimental-context: pH 7.1; 25 °C
reported-metric: Km

Exercise: Please look up its Km: unnamed (protein) MKPENKLPVLDLISAEMKTVVNTLQPDLPPWPATGTIAEQRQYYTLERRFWNAGAPEMATRAYMVPTKYGQVETRLFCPQPDSPATLFYLHGGGFILGNLDTHDRIMRLLASYSQCTVIGIDYTLSPEARFPQAIEEIVAACCYFHQQAEDYQINMSRIGFAGDSAGAMLALASALWLRDKQIDCGKVAGVLLWYGLYGLRDSVTRRLLGGVWDGLTQQDLQMYEEAYLSNDADRESPYYCLFNNDLTREVPPCFIAGAEFAPLLDDSRLLYQTLAAHQQPCEFKLYPGTLHAFLHYSRMMKTADEALRDGAQFFTAQL
Solution: 400 µM
